These entries and their values trace back to ChEMBL document CHEMBL1139492.

- Test system: Rattus norvegicus
- measurement_notes: Effect of the 25 mg/kg compound on 3-alpha,5alpha-THPROG concentration in rat cerebral cortex after 30 min of intraperitoneal administration
- Format: functional, organism-based
- Parameters: dose 25 mg/kg

{"compound_structure_string": "C=CCN(CC=C)C(=O)Cc1c(-c2ccc(Cl)cc2)nc2c(Cl)cc(Cl)cn12", "unit": "ng/g", "Concentration": 8.6}
{"compound_structure_string": "CCCCN(CCCC)C(=O)Cc1c(-c2ccc(Cl)cc2)nc2c(Cl)cc(Cl)cn12", "unit": "ng/g", "Concentration": 9.1}
{"compound_structure_string": "CCCCN(C(=O)Cc1c(-c2ccccc2)nc2c(Cl)cc(Cl)cn12)c1ccccc1", "unit": "ng/g", "Concentration": 16.3}
